Numbers sourced from the RNAGym collection of RNA variant scans (doi:10.1093/nar/gkz1192).

B1: CPEB3 Ribozyme (parent)
chain: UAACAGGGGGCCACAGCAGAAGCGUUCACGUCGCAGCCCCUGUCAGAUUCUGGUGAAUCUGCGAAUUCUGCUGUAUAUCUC

# Variants of: B1
# Assay overview: self-cleavage, relative activity (ratio to wild type); higher = more cleavage; in vitro, sequencing
Entries annotated with measured self-cleavage
Measurement kind: self-cleavage

>>> assay_value("U60C C79U")
0.72
>>> assay_value("C29A U49A")
0.45
>>> assay_value("A15G C62A")
0.17
>>> assay_value("A3C A57G")
1.19
>>> assay_value("A5G U69C")
0.37
>>> assay_value("A45G A65U")
0.27
>>> assay_value("A5G U43A")
0.84
>>> assay_value("C40U G61A")
0.42
>>> assay_value("G10U G33A")
0.23
>>> assay_value("G36U U74C")
0.31
>>> assay_value("C23G A56G")
0.23
>>> assay_value("G22U A45G")
0.22
>>> assay_value("A28U G30U")
0.2
>>> assay_value("C23A C79A")
0.26
>>> assay_value("A45U A47G")
0.36
>>> assay_value("A3G G53A")
1.02
>>> assay_value("A13C C17U")
0.53
>>> assay_value("C4G U66A")
0.79
>>> assay_value("C37U C71G")
0.21
>>> assay_value("G8A U72A")
0.07
>>> assay_value("C32U A65G")
0.21
>>> assay_value("G30A A64G")
0.43
>>> assay_value("A21G C68G")
0.2
>>> assay_value("A2U G24A")
0.3
>>> assay_value("G8A A56G")
0.24
>>> assay_value("U48C G73C")
1.23
>>> assay_value("U31A G42C")
0.53
>>> assay_value("A13C U80C")
1.14
>>> assay_value("A15G G36U")
0.3
>>> assay_value("A18C U78C")
0.4
>>> assay_value("A3U A57G")
1.04
>>> assay_value("A18C A64G")
0.38
>>> assay_value("G6C A35U")
0.3
>>> assay_value("A3U")
1.06
>>> assay_value("G8U G73C")
0.5
>>> assay_value("G9U A65G")
0.17
>>> assay_value("C50U A64G")
0.99
>>> assay_value("C23U C38U")
0.13
>>> assay_value("U1C C14U")
1.07
>>> assay_value("G55A A56U")
0.84
>>> assay_value("C23A")
0.3
>>> assay_value("U31G U58C")
0.4
>>> assay_value("A3U C38U")
0.97
>>> assay_value("C29U U67C")
0.23
>>> assay_value("A5G G36A")
0.29
>>> assay_value("A35C U49C")
0.4
>>> assay_value("A65C C81A")
0.5
>>> assay_value("A5U G22A")
0.28
>>> assay_value("A20U A28C")
0.18
>>> assay_value("A3U U60A")
0.19
>>> assay_value("U41C A47C")
0.46
>>> assay_value("U1A U25C")
0.41
>>> assay_value("C34U C71A")
0.13
>>> assay_value("U41A U51C")
0.31
>>> assay_value("C34U U58C")
0.16
>>> assay_value("U1A A75U")
1.14
>>> assay_value("U26G G73A")
0.89
>>> assay_value("A3G A56U")
0.64
